Emax for assorted molecules
targetEntity: human M2 receptor (Homo sapiens)
Sequence (P08172 whole entry): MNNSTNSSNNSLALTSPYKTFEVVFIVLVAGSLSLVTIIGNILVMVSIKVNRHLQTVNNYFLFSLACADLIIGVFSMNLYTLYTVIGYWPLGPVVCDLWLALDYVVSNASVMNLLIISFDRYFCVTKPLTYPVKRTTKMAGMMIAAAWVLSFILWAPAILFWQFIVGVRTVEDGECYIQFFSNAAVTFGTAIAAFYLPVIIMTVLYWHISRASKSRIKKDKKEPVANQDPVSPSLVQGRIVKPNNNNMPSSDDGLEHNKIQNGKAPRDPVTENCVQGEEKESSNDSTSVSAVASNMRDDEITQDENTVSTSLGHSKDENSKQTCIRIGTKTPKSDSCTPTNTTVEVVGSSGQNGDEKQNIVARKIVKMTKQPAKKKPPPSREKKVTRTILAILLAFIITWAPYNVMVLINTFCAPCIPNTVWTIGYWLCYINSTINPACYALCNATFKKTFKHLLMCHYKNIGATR
experimentDescription: Functional M2-GIRK1/4 activation test: allosteric potency (EC50) and efficiency
statedConditions: read-out: Efficiency, boosting of the acetylcholine effect at EC20 acetylcholine concentration; CHO-DUKX-M2-GIRK cells
reportedEndpoint: Emax

# molecule, reportedEndpoint, endpointValue
data = [
    ("CC(C)C[C@H](NC(=O)c1cn(-c2ncc(F)cc2F)c2nc(N3C[C@@H](O)[C@H](O)C3)ccc2c1=O)C(F)(F)F", "Emax", "100%"),
    ("CC(C)(CC(F)(F)F)NC(=O)c1cn(-c2ncc(F)cc2F)c2nc(N3C[C@@H](O)CC3=O)ccc2c1=O", "Emax", "100%"),
    ("O=C(NC(C(F)(F)F)C(F)(F)F)c1cn(-c2ncc(F)cc2F)c2nc(N3CC4CC4(O)C3)ccc2c1=O (racemic) [Example 57]", "Emax", "94%"),
    ("CC[C@H](NC(=O)c1cn(-c2c(F)cncc2F)c2nc(N3CCNC3=O)ccc2c1=O)C(F)(F)F", "Emax", "89%"),
]

---

targetEntity: human M2 receptor (Homo sapiens)
experimentDescription: Functional M2-GIRK1/4 activation test: allosteric potency (EC50) and efficiency
statedConditions: boosting of the acetylcholine effect at EC20 acetylcholine concentration; CHO-DUKX-M2-GIRK cells
Efficiency for assorted molecules

# molecule, Efficiency / %
rows = [
    ("O=C(NC(c1ccc(F)cc1)C(F)(F)F)c1cn(-c2ncc(F)cc2F)c2nc(N3C[C@@H](O)CC3=O)ccc2c1=O (single isomer, unassigned) [Example 13]", 99.50),
    ("CC[C@H](NC(=O)c1cn(-c2ncc(F)cc2F)c2nc(N3CC(O)C(C)C3=O)ccc2c1=O)C(F)(F)F (single isomer, unassigned) [Example 111]", 99.00),
    ("CCC(NC(=O)c1cn(-c2ncc(F)cc2F)c2nc(N3C[C@@H](O)CC3=O)ccc2c1=O)C(F)(F)C(F)(F)F (single isomer, unassigned) [Example 94]", 100.00),
    ("O=C(N[C@H](C1CC1)C(F)(F)F)c1cn(-c2ncccc2F)c2nc(N3CC4C[C@@]4(O)C3)ccc2c1=O (single isomer, unassigned) [Example 137]", 99.00),
    ("CC1C(=O)N(c2ccc3c(=O)c(C(=O)N[C@@H](C4CC4)C(F)(F)F)cn(-c4ncc(F)cc4F)c3n2)CC1O (single isomer, unassigned) [Example 107]", 98.00),
]

---

targetEntity: UniProt:P08172
experimentDescription: Functional M2-GIRK1/4 activation test: allosteric potency (EC50) and efficiency
statedConditions: read-out: Efficiency, boosting of the acetylcholine effect at EC20 acetylcholine concentration; CHO-DUKX-M2-GIRK cells
Emax for assorted compounds
reportedEndpoint: Emax

# compound, endpointValue
data = [
    ("CC(NC(=O)c1cn(-c2ncc(F)cc2F)c2nc(N3C[C@@H](O)CC3=O)ccc2c1=O)C(F)(F)C(F)(F)F (single isomer, unassigned) [Example 77]", "100%"),
    ("CC[C@H](NC(=O)c1cn(-c2ncc(F)cc2F)c2nc(N3C[C@@H](C)NC3=O)ccc2c1=O)C(F)(F)F", "90%"),
    ("CC1(NC(=O)c2cn(-c3ncc(F)cc3F)c3nc(N4C[C@@H](O)CC4=O)ccc3c2=O)CC(F)(F)C1", "98%"),
    ("C[C@H](NC(=O)c1cn(-c2ncc(F)cc2F)c2nc(N3C[C@@H](O)CC3=O)ccc2c1=O)C(F)(F)F", "97.8%"),
    ("CC(C)C[C@H](NC(=O)c1cn(-c2ncc(F)cc2F)c2nc(N3C[C@@H](O)CC3=O)ccc2c1=O)C(F)(F)F", "100%"),
    ("CC(C)(C)[C@H](NC(=O)c1cn(-c2ncc(F)cc2F)c2nc(N3CCCN(CCO)C3=O)ccc2c1=O)C(F)(F)F", "97%"),
    ("O=C(NC(C(F)(F)F)C(F)(F)F)c1cn(-c2ncc(F)cc2F)c2nc(N3CCNC3=O)ccc2c1=O", "90.5%"),
    ("O=C(NC1(C(F)(F)F)CCC1)c1cn(-c2ncc(F)cc2F)c2nc(N3C[C@@H](O)CC3=O)ccc2c1=O", "99%"),
    ("O=C(NC(C(F)(F)F)C(F)(F)F)c1cn(-c2ncc(F)cc2F)c2nc(N3CCCC[C@@H]3CO)ccc2c1=O", "100%"),
    ("O=C(N[C@H](C1CC1)C(F)(F)F)c1cn(-c2ncc(F)cc2F)c2nc(N3CC4CC4(O)C3)ccc2c1=O (single isomer, unassigned) [Example 38]", "98%"),
    ("O=C(NC12CC(C1)C2)c1cn(-c2ncc(F)cc2F)c2nc(N3C[C@@H](O)CC3=O)ccc2c1=O", "78.5%"),
    ("O=C(N[C@@H](C1CC1)C(F)(F)F)c1cn(-c2ncc(F)cc2F)c2nc(N3CCN(CCO)C3=O)ccc2c1=O", "92%"),
    ("C[C@@H]1CN(c2ccc3c(=O)c(C(=O)NC(C)(C)C(F)F)cn(-c4ncc(F)cc4F)c3n2)C(=O)N1", "92%"),
]

---

targetEntity: human M2 receptor (Homo sapiens)
experimentDescription: Functional M2-GIRK1/4 activation test: allosteric potency (EC50) and efficiency
statedConditions: read-out: Efficiency, boosting of the acetylcholine effect at EC20 acetylcholine concentration; CHO-DUKX-M2-GIRK cells

# compound, targetEntity, Emax, %
data = [
    ("CC(C)(NC(=O)c1cn(-c2ncc(F)cc2F)c2nc(N3CCCC[C@@H]3CO)ccc2c1=O)C(F)(F)C(F)(F)F", "human M2 receptor (Homo sapiens)", 100),
    ("CC[C@H](NC(=O)c1cn(-c2ncc(F)cc2F)c2nc(N3CC(O)C(C)C3=O)ccc2c1=O)C(F)(F)F (mixture of isomers) [Example 108]", "human M2 receptor (Homo sapiens)", 84),
    ("CC(C)(C)[C@H](NC(=O)c1cn(-c2ncc(F)cc2F)c2nc(N3CCN(CCO)C3=O)ccc2c1=O)C(F)(F)F", "human M2 receptor (Homo sapiens)", 97),
    ("O=C(NC(c1ccccc1Cl)C(F)(F)F)c1cn(-c2ncc(F)cc2F)c2nc(N3C[C@@H](O)CC3=O)ccc2c1=O (mixture of isomers) [Example 4]", "human M2 receptor (Homo sapiens)", 98.2),
    ("CC[C@@H](NC(=O)c1cn(-c2ncc(F)cc2F)c2nc(NCC(F)F)ccc2c1=O)C(F)(F)F", "human M2 receptor (Homo sapiens)", 91),
    ("CC(C)(NC(=O)c1cn(-c2ncc(F)cc2F)c2nc(N3CCC(CO)(CO)CC3)ccc2c1=O)C(F)(F)C(F)(F)F", "human M2 receptor (Homo sapiens)", 97.5),
    ("CC(NC(=O)c1cn(-c2ncc(F)cc2F)c2nc(N3C[C@@H](O)[C@H](O)C3)ccc2c1=O)C(F)(F)C(F)(F)F (single isomer, unassigned) [Example 89]", "human M2 receptor (Homo sapiens)", 98),
]

---

targetEntity: human M2 receptor (Homo sapiens)
experimentDescription: Functional M2-GIRK1/4 activation test: allosteric potency (EC50) and efficiency
statedConditions: read-out: Efficiency, boosting of the acetylcholine effect at EC20 acetylcholine concentration; CHO-DUKX-M2-GIRK cells

# compound, Emax (%)
records = [
    ("CC(C)(C)[C@@H](NC(=O)c1cn(-c2ncc(F)cc2F)c2nc(N3C[C@@H](O)[C@H](O)C3)ccc2c1=O)C(F)(F)F", 100),
    ("CC[C@@H](NC(=O)c1cn(-c2ncc(F)cc2F)c2nc(N3CCCC(O)C3)ccc2c1=O)C(F)(F)F (mixture of isomers)", 94.5),
    ("CC(C)(C)[C@@H](NC(=O)c1cn(-c2ncc(F)cc2F)c2nc(N3CCN(CCO)C3=O)ccc2c1=O)C(F)(F)F", 98),
    ("O=C(N[C@H](C1CC1)C(F)(F)F)c1cn(-c2ncccc2Cl)c2nc(N3C[C@@H](O)CC3=O)ccc2c1=O", 85),
    ("CC(NC(=O)c1cn(-c2ncc(F)cc2F)c2nc(N3CC(CO)(CO)C3)ccc2c1=O)C(F)(F)C(F)(F)F (single isomer, unassigned)", 100),
    ("O=C(NC(C(F)(F)F)C(F)(F)F)c1cn(-c2ncc(F)cc2F)c2nc(N3C[C@@H](O)CC3=O)ccc2c1=O", 96.2),
    ("CCC(NC(=O)c1cn(-c2ncc(F)cc2F)c2nc(N3CCNC3=O)ccc2c1=O)C(F)(F)C(F)(F)F (racemic) [Example 164]", 100),
    ("O=C(NC(c1ccccc1Cl)C(F)(F)F)c1cn(-c2ncc(F)cc2F)c2nc(N3C[C@@H](O)[C@H](O)C3)ccc2c1=O (single isomer, unassigned) [Example 84]", 100),
    ("CC(C)C[C@@H](NC(=O)c1cn(-c2ncc(F)cc2F)c2nc(N3C[C@@H](O)[C@H](O)C3)ccc2c1=O)C(F)(F)F", 100),
    ("CC1CC(=O)N(c2ccc3c(=O)c(C(=O)N[C@H](C4CC4)C(F)(F)F)cn(-c4ncc(F)cc4F)c3n2)C1 (mixture of isomers) [Example 27]", 79),
    ("CC[C@@H](NC(=O)c1cn(-c2ncccc2F)c2nc(N3CC4CC4(O)C3)ccc2c1=O)C(F)(F)F (mixture of isomers)", 100),
    ("O=C(NC(C(F)(F)F)C(F)(F)F)c1cn(-c2ncc(F)cc2F)c2nc(N3CCC(CO)(CO)CC3)ccc2c1=O", 100),
    ("O=C(NC(c1cccc(F)c1)C(F)(F)F)c1cn(-c2ncc(F)cc2F)c2nc(N3C[C@@H](O)CC3=O)ccc2c1=O (stereo partly shown)", 95.5),
]
